Target: CCR5 (UniProt P51681)
Assay: cell-based or functional assay
Reported anti-HIV potency (IC50, nM) by cell fusion assay values follow for various binders
observation type: anti-HIV potency (IC50, nM) by cell fusion assay

[
  {
    "binder": "RANTES derivative: signature sequence SEQ ID NO: 52 fused to positions 10-68 of native RANTES (SEQ ID NO: 1) (ligand) QGPPLMALSVCCFAYIARPLPRAHIKEYFYTSGKCSNPAVVFVTRKNRQVCANPEKKWVREYINSLEMS",
    "test value": "0.02 nM"
  },
  {
    "binder": "RANTES derivative: signature sequence SEQ ID NO: 23 fused to positions 10-68 of native RANTES (SEQ ID NO: 1) (ligand) QGPPLMSTQSCCFAYIARPLPRAHIKEYFYTSGKCSNPAVVFVTRKNRQVCANPEKKWVREYINSLEMS",
    "test value": "0.03 nM"
  },
  {
    "binder": "RANTES derivative: signature sequence SEQ ID NO: 65 fused to positions 10-68 of native RANTES (SEQ ID NO: 1) (ligand) QGPPLMSLQACCFAYIARPLPRAHIKEYFYTSGKCSNPAVVFVTRKNRQVCANPEKKWVREYINSLEMS",
    "test value": "0.04 nM"
  },
  {
    "binder": "RANTES derivative: signature sequence SEQ ID NO: 24 fused to positions 10-68 of native RANTES (SEQ ID NO: 1) (ligand) QGPPLMSLQVCCFAYIARPLPRAHIKEYFYTSGKCSNPAVVFVTRKNRQVCANPEKKWVREYINSLEMS",
    "test value": "0.03 nM"
  },
  {
    "binder": "RANTES derivative: signature sequence SEQ ID NO: 64 fused to positions 10-68 of native RANTES (SEQ ID NO: 1) (ligand) QGPPLMSLQSCCFAYIARPLPRAHIKEYFYTSGKCSNPAVVFVTRKNRQVCANPEKKWVREYINSLEMS",
    "test value": "0.04 nM"
  }
]
